Target: gH/gL/UL128/UL130/UL131A pentamer complex (PC) of HCMV strain TR virus (human cytomegalovirus strain TR)
Experiment: cell-based or functional assay
So I've got a bunch of binders here, and I need their IC50, neutralization of TR infection of ARPE-19 values.
// units = ng/mL; emit number, no label

Ask: Look up and report measured IC50, neutralization of TR infection of ARPE-19 for this entry: 21F6 (antibody, V domains shown, also called NAb 21F6) VH: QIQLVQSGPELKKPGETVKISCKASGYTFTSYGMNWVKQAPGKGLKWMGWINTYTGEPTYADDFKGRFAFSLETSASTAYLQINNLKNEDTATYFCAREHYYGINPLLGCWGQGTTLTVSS VL: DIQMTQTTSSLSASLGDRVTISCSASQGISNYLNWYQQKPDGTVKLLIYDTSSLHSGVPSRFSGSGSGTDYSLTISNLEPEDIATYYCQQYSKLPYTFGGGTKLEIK
Reply: 3.5

Ask: Look up and report measured IC50, neutralization of TR infection of ARPE-19 for this entry: 13B5 (antibody, V domains shown, also called NAb 13B5; 1365) VH: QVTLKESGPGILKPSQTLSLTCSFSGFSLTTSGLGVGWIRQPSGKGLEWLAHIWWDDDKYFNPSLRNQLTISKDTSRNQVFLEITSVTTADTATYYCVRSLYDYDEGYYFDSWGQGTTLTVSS VL: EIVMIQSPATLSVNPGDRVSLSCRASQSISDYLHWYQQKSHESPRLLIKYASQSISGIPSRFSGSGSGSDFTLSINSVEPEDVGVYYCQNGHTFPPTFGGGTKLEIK
Reply: 19.9

Ask: Look up and report measured IC50, neutralization of TR infection of ARPE-19 for this entry: 12E2 (antibody, V domains shown, also called NAb 12E2) VH: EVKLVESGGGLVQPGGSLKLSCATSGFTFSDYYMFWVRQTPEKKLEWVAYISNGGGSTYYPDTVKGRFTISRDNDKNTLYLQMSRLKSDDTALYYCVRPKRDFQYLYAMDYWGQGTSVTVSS VL: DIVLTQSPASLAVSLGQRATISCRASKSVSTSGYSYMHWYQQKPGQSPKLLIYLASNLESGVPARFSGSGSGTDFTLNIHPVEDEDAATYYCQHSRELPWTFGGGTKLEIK
Reply: 3.1

Ask: Look up and report measured IC50, neutralization of TR infection of ARPE-19 for this entry: 54E11 (antibody, V domains shown, also called NAb 54E11) VH: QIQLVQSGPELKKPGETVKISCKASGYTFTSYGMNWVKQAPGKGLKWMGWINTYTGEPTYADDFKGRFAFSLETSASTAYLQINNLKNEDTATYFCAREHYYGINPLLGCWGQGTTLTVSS VL: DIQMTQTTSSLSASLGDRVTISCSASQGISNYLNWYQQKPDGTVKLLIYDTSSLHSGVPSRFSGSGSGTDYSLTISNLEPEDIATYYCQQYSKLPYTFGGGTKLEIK
Reply: 3.4

Ask: Look up and report measured IC50, neutralization of TR infection of ARPE-19 for this entry: 1B2 (antibody, V domains shown, also called NAb 1B2) VH: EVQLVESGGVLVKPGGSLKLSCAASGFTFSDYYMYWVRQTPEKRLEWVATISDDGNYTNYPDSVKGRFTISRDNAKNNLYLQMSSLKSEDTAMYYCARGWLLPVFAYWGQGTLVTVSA VL: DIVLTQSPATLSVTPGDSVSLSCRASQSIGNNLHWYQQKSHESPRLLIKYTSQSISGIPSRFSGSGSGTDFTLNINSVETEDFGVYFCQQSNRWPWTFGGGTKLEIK
Reply: 0.3
